Each item that follows carries a reported human plasma clot lysis, IC50.
Target: glycosylated human PAI-1 (active form) (human, UniProt P05121 24-402, glycosylated)
Sequence (P05121 24-402 limits assumed): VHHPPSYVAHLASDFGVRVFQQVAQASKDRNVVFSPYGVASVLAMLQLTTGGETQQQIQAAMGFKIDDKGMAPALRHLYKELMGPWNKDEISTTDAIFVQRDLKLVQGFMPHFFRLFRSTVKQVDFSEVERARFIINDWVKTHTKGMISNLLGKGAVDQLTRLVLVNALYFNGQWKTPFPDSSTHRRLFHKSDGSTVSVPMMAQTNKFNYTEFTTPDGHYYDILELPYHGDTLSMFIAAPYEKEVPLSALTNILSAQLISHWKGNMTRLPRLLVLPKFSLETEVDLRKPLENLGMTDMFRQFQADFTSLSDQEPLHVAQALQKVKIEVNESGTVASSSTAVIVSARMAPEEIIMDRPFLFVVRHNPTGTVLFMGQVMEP
Test: cell-based or functional assay
Give just the number in nM; leave the unit off.

See these solved cases before continuing.
APGv2 (antibody, V domains shown, humanized APG; captured by anti-human IgG (Fc); also called APG variant 2) VH: QVQLVQSGSELKKPGASVKVSCKASGYSFTDYNMNWVRQAPGQGLEWIGIIHPNSGTTTYNQKFKGRAVLSVDQSVSTAYLQISSLKAEDTAVYYCARSKLRFFDYWGQGTLVTVSS VL: DIQLTQSPSSLSASVGDRVTITCKASQDIYSYLSWFQQKPGKAPKTLIYRANRLIDGVPSRFSGSGSGQDYTFTISSLQPEDIATYYCLQYDEFPFTFGQGTKLEIK | 2.08
APGv4 (antibody, V domains shown, humanized APG; captured by anti-human IgG (Fc); also called APG variant 4) VH: QVQLVQSGAEVKKPGASVKVSCKASGYSFTDYNMNWVRQAPGQGLEWIGIIHPNSGTTTYNQKFKGRATLTVDQSTSTAYMELSSLRSEDTAVYYCARSKLRFFDYWGQGTLVTVSS VL: DIQLTQSPSSLSASVGDRVTITCKASQDIYSYLSWFQQKPGKAPKTLIYRANRLIDGVPSRFSGSGSGQDYTFTISSLQPEDIATYYCLQYDEFPFTFGQGTKLEIK | 2.82
A44-hv11 (antibody, V domains shown, humanized A44, HEK293; compared with a human IgG1 isotype control; constant regions as for A44-hv1; also called A44V11; A44v11) VH: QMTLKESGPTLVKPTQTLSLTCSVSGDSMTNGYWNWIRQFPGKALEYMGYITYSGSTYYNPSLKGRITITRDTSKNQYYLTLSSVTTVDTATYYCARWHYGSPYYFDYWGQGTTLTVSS VL: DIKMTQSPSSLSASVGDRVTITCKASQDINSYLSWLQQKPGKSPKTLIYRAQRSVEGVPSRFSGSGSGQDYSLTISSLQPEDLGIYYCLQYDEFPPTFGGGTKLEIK | 1.38

Now consider a different binder.
Would you kindly share the measured human plasma clot lysis, IC50 for APG (antibody, V domains shown, murine anti-PAI-1 antibody of DE2000153251; also called mAPG; mouse APG) VH: QVKLQESGPELVKPGASVKISCKASGYSFTDYNMNWVKQSKGKSLEWIGIIHPNSGTTTYNQKFKGKATLTVDQSSSTAYLQLNSLTSEDSAVYYCARSKLRFFDYWGQGTTVTVSS VL: DIKLTQSPSSMYASLGERVTITCKASQDIYSYLSWFQQKPGKSPKTLIYRANRLIDGVPSRFSGSGSGQDYSLTISSLEYEHMGIYYCLQYDEFPFTFGSGTKLEIK ?
2.34

Where these numbers come from: patent US20160200831A1
